Each recorded value in this set is attributed to paper PMC8287028.

assay: Pharmacokinetics after oral apixaban capsules, plasma concentrations by LC/MS; settings: both, mixed-breed, dog, plasma, po, 0.2 mg/kg, CL/F (systemic clearance per fraction absorbed), dogs, mean dose 0.2 mg/kg; mean, n = 5
observable: CL/F (mL/min/kg)
Please reply with the bare figure in mL/min/kg and do not write the unit itself.

Form field CL/F, entry COc1ccc(-n2nc(C(N)=O)c3c2C(=O)N(c2ccc(N4CCCCC4=O)cc2)CC3)cc1 [apixaban] : 2.08

---

test: Pharmacokinetics after intravenous apixaban, plasma concentrations by LC/MS; format: in vivo, dog; conditions: both sexes, mixed-breed, dog, plasma, iv, 0.18 mg/kg, dogs, IV, mean dose 0.18 mg/kg; mean of 6 dogs; read-out: AUC (area-under-the-curve)
observable: AUC (µg·h/mL)
Please reply with the bare figure in µg·h/mL and do not write the unit itself.

Form field AUC, entry COc1ccc(-n2nc(C(N)=O)c3c2C(=O)N(c2ccc(N4CCCCC4=O)cc2)CC3)cc1 [apixaban] : 6.03

---

test: Pharmacokinetics after oral apixaban capsules, plasma concentrations by LC/MS; details: both, mixed-breed, dog, plasma, po, 0.2 mg/kg, K10 T½ (apparent elimination half-life), dogs, mean dose 0.2 mg/kg; individual dogs (Dog 1-5)
observable: half-life (h)
Please reply with the bare figure in h and do not write the unit itself.

Form field half-life, entry COc1ccc(-n2nc(C(N)=O)c3c2C(=O)N(c2ccc(N4CCCCC4=O)cc2)CC3)cc1 : 3.8
